Each entry below carries its recorded selectivity ratio.
assay-name: Selectivity index, ratio of IC50 for human MRC5 cells to IC50 for chloroquine/mefloquine-resistant Plasmodium falciparum SRIV35
Format: toxicity, cell-based
settings: read-out: Ratio IC50
Give a plain numeric answer without units written out.

Take a look at these entries with their results.
Cn1cc2c3cc(Cl)ccc3nc-2c2cc(Cl)ccc21 :: 162
Cc1cccc2c3nc4ccccc4c-3cn(C)c12 :: 24.6
Cn1cc2c3cc(Br)ccc3nc-2c2cccc(F)c21 :: 65.2

QUERY: Query (molecule): Cn1cc2c3cc(Br)ccc3nc-2c2cc(F)ccc21 ; field requested: selectivity ratio
RESULT: 577

QUERY: Query (molecule): Cn1cc2c3cc(F)ccc3nc-2c2cc(Cl)ccc21 ; field requested: selectivity ratio
RESULT: 22.9

QUERY: Query (molecule): Cn1cc2c3ccccc3nc-2c2cc(Cl)ccc21 ; field requested: selectivity ratio
RESULT: 48
